- target: hMC4-R (Homo sapiens (Human), UniProt P32245)
- Sequence (P32245 whole entry): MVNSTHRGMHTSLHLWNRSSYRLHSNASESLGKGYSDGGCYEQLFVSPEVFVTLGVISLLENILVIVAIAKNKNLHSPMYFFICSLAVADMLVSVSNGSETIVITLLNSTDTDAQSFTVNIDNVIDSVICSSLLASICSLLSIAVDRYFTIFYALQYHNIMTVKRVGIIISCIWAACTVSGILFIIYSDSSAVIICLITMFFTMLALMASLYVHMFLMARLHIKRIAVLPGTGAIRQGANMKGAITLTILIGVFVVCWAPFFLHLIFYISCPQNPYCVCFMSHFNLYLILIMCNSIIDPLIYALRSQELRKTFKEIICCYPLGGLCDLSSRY
- assay.text: Competitive inhibition binding assay using [I125]-NDP-α-MSH, hMC4-R
- experimental.parameters: membranes of HEK-293 cells expressing recombinant hMC4-R, read-out: MC4-R Ki
property.label: pKi
Keep in mind that pKi stands for -log10 of concentration in molar terms.

I would be grateful if you could share the reported pKi for CC(=O)N[C@@H](CCCNC(=N)N)C(=O)N[C@H]1CCC(=O)NCCC[C@@H](C(N)=O)NC(=O)[C@H](Cc2c[nH]c3ccccc23)NC(=O)[C@H](CCCNC(=N)N)NC(=O)[C@@H](Cc2ccc(C)cc2C)NC(=O)[C@H](CCN)NC1=O [Example 21] . 10.07

Which pKi reading was recorded for the molecule COc1ccc(C[C@H]2NC(=O)[C@H](CCN)NC(=O)[C@@H](NC(=O)[C@H](CCCNC(=N)N)NC(C)=O)CCC(=O)NCCC[C@@H](C(N)=O)NC(=O)[C@H](Cc3c[nH]c4ccccc34)NC(=O)[C@H](CCCNC(=N)N)NC2=O)cc1 [Example 16] ? 9.60

Recorded pKi for CC(=O)N[C@@H](CCCNC(=N)N)C(=O)N[C@H]1CCC(=O)NCCC[C@@H](C(N)=O)NC(=O)[C@H](Cc2c[nH]c3ccccc23)NC(=O)[C@H](CCCNC(=N)N)NC(=O)[C@@H](Cc2cccc(Cl)c2)NC(=O)[C@H](CCC(N)=O)NC1=O [Example 38] , please? 8.52

Entry under review: CC(=O)N[C@@H](CCCNC(=N)N)C(=O)N[C@H]1CCC(=O)NCCC[C@@H](C(N)=O)NC(=O)[C@H](Cc2c[nH]c3ccccc23)NC(=O)[C@H](CCCNC(=N)N)NC(=O)[C@@H](Cc2cccc(Cl)c2)NC(=O)[C@H](CCCNC(N)=O)NC1=O [Example 99] . Reported pKi? 9.30

I'd like to know its pKi. The molecule in question is CC(=O)N[C@@H](CCCNC(=N)N)C(=O)N[C@H]1CCC(=O)NCCC[C@@H](C(N)=O)NC(=O)[C@H](Cc2c[nH]c3ccccc23)NC(=O)[C@H](CCCNC(=N)N)NC(=O)[C@@H](Cc2ccc(F)cc2)NC(=O)[C@H](CO)NC1=O [Example 65] 8.30

Fill blank: measured pKi of the molecule CC(=O)N[C@@H](CCCNC(=N)N)C(=O)N[C@H]1CCC(=O)NCCC[C@@H](C(N)=O)NC(=O)[C@H](Cc2c[nH]c3ccccc23)NC(=O)[C@H](CCCNC(=N)N)NC(=O)[C@@H](Cc2ccccc2C(F)(F)F)NC(=O)[C@H](CCC(N)=O)NC1=O [Example 114] is ____. 8.10

Given the entry CC(=O)N[C@@H](CCCNC(=N)N)C(=O)N[C@H]1CCC(=O)NCCC[C@@H](C(N)=O)NC(=O)[C@H](Cc2c[nH]c3ccccc23)NC(=O)[C@H](CCCNC(=N)N)NC(=O)[C@@H](Cc2ccccc2Cl)NC(=O)[C@H](CCC(N)=O)NC1=O [Example 34] , report its measured pKi. 8.15

May I ask what pKi has been recorded for CC(=O)N[C@@H](CCCNC(=N)N)C(=O)N[C@H]1CCC(=O)NCCC[C@@H](C(N)=O)NC(=O)[C@H](Cc2c[nH]c3ccccc23)NC(=O)[C@H](CCCNC(=N)N)NC(=O)[C@@H](Cc2cccc(F)c2)NC(=O)[C@H](CCN)NC1=O [Example 10] ? 8.70

pKi for CC(=O)N[C@@H](CCCNC(=N)N)C(=O)N[C@H]1CCC(=O)NCCC[C@@H](C(N)=O)NC(=O)[C@H](Cc2c[nH]c3ccccc23)NC(=O)[C@H](CCCNC(=N)N)NC(=O)[C@@H](Cc2ccc(C#N)cc2)NC(=O)[C@H]([C@@H](C)O)NC1=O [Example 44] ? 7.74

Given CC(=O)N[C@@H](CCCNC(=N)N)C(=O)N[C@H]1CCC(=O)NCCC[C@@H](C(N)=O)NC(=O)[C@H](Cc2c[nH]c3ccccc23)NC(=O)[C@H](CCCNC(=N)N)NC(=O)[C@@H](Cc2ccc(C#N)cc2)NC(=O)[C@@H]2C[C@@H](O)CN2C1=O [Example 40] , state its recorded pKi. 8.70

Give the measured pKi of CC(=O)N[C@@H](CCCNC(=N)N)C(=O)N[C@H]1CC(=O)NCCCC[C@@H](C(N)=O)NC(=O)[C@H](Cc2c[nH]c3ccccc23)NC(=O)[C@H](CCCNC(=N)N)NC(=O)[C@@H](Cc2ccc(C#N)cc2)NC(=O)[C@H](CCC(N)=O)NC1=O [Example 90] . 8.30

// query pKi value for entry CC(=O)N[C@@H](CCCNC(=N)N)C(=O)N[C@H]1CCC(=O)NCCC[C@@H](C(N)=O)NC(=O)[C@H](Cc2c[nH]c3ccccc23)NC(=O)[C@H](CCCNC(=N)N)NC(=O)[C@@H](Cc2ccc(C)cc2)NC(=O)[C@H](CCN)NC1=O [Example 15] 9.84

Return reported pKi; argument: CC(=O)N[C@@H](CCCNC(=N)N)C(=O)N[C@H]1CCC(=O)NCCC[C@@H](C(N)=O)NC(=O)[C@H](Cc2c[nH]c3ccccc23)NC(=O)[C@H](CCCNC(=N)N)NC(=O)[C@@H](Cc2ccccc2C(F)(F)F)NC(=O)[C@H](CC(N)=O)NC1=O [Example 116] 8.15

What measured pKi goes with CC(=O)N[C@@H](CCCNC(=N)N)C(=O)N[C@H]1CCCNC(=O)CC[C@@H](C(N)=O)NC(=O)[C@H](Cc2c[nH]c3ccccc23)NC(=O)[C@H](CCCNC(=N)N)NC(=O)[C@@H](Cc2cc(F)cc(F)c2)NC(=O)[C@H](CC(N)=O)NC1=O [Example 77] ? 8.10

Which pKi value is on record for CC(=O)N[C@@H](CCCNC(=N)N)C(=O)N[C@H]1CCC(=O)NCCC[C@@H](C(N)=O)NC(=O)[C@H](Cc2c[nH]c3ccccc23)NC(=O)[C@H](CCCNC(=N)N)NC(=O)[C@@H](Cc2ccc(F)cc2)NC(=O)[C@H](CCN)NC1=O [Example 11] ? 9.60

Ref: patent US9040663B2
